# System: rh beta Tryptase (Homo sapiens, UniProt Q15661)
# Construct: purchased Promega
# Sequence (Q15661 31-275): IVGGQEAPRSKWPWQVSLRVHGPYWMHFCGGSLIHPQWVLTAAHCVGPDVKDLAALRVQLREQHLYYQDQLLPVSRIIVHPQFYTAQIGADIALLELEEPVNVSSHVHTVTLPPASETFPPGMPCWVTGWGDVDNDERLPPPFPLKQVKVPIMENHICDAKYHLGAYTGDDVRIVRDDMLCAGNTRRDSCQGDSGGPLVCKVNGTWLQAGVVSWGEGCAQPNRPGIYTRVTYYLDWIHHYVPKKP
# Assay text: Tryptase inhibition test (cleavage of chromogenic substrate, p-nitroaniline read at 405 nm)
# Assay type: biochemical
# Measurement parameters: Tris HCl buffer 100 mM, calcium 5 mM, heparin, pH 7.4, 37°C; substrate N-p-Tosyl-Gly-Pro-Lys-para-nitroanilin 0.6 mM; 5 min preincubation, 5 min incubation; 0.91 U/ml enzyme
# Experimental: Die erfindungsgemäßen Verbindungen zeichnen sich durch ihre Tryptase-inhibierende Wirksamkeit aus. Besagte Fähigkeit, die Tryptase zu inhibieren, wurde gemäß der nachfolgenden Testbeschreibung untersucht. Die Bestimmung wird in Tris HCI Puffer (100 mM), der zusätzlich Calcium (5 mM) und Heparin ([…]) enthält, bei pH 7.4 durchgeführt. Als Standard wird rh beta Tryptase eingesetzt, die beispielsweise von Promega käuflich zu erwerben ist. […]
Endpoint: IC50 (nM)
Report the value in nM with no unit label.

Identify IC50 associated with the molecule CCN(CC)CCN(c1ccc2c(c1)nc(CCc1ccc(C(=N)N)cc1)n2C)S(=O)(=O)c1cccc2c(N(C)C)cccc12 11
